Target: T1, RSV F glycoprotein (NUF4) (respiratory syncytial virus)
T1 chain 1: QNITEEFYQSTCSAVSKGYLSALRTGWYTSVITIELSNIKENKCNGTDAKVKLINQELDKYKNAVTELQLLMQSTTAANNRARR
T1 chain 2: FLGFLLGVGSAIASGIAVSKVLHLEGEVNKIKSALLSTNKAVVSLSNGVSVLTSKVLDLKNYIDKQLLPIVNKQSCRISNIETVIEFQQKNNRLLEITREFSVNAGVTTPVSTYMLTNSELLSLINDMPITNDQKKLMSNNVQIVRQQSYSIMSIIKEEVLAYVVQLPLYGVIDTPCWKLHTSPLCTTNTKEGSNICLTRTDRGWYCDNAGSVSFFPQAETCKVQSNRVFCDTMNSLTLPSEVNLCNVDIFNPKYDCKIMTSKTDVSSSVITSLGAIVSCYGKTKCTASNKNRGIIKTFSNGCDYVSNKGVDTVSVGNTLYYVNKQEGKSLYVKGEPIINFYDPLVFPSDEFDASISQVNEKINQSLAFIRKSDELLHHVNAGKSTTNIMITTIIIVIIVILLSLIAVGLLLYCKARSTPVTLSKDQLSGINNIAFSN
Test: SPR (BIAcore), mAb vs NUF4 (1:1)
For each of the binders below, state its koff.
Numbers only, in s⁻¹.

Binder: P11d4 IgG (antibody, V domains shown) VH: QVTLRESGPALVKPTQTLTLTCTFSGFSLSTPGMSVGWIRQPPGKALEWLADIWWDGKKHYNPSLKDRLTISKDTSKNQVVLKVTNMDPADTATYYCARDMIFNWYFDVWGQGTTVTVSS VL: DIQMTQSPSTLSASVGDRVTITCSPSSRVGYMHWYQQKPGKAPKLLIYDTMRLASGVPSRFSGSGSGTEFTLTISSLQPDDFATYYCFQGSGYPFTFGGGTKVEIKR
Unit symbol: s⁻¹
koff: 0.000766

Query :: Reported koff for A4B4 IgG (antibody, V domains shown) VH: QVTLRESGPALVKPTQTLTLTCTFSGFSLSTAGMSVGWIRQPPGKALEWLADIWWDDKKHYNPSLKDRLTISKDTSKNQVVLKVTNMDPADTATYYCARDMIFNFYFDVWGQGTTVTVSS VL: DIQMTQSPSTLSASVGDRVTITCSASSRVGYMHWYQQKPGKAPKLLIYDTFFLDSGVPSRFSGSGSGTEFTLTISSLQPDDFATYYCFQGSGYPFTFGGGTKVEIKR : what is it?
Result :: 0.000282
